# Experimental system: T1, SETMAR full-length WT (Homo sapiens, UniProt Q53H47 14-684)
# T1 sequence: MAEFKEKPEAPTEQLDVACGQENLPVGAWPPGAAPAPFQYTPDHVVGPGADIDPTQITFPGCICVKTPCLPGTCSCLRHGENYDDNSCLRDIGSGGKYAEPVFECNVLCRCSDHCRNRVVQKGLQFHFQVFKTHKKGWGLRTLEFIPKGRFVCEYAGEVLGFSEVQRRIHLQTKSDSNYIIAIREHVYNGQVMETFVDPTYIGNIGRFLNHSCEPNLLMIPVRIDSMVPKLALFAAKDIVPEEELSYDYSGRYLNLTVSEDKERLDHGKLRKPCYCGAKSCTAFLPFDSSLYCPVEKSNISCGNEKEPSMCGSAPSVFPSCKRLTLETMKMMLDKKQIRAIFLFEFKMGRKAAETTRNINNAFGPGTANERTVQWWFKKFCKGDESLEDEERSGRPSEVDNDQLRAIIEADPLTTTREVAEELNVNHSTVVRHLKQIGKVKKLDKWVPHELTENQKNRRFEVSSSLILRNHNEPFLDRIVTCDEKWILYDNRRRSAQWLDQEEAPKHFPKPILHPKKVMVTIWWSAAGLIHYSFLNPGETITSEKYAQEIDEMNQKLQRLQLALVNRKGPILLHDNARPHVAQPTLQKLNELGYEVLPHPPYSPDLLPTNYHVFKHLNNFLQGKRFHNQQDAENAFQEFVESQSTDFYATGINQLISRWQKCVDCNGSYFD
# Assay procedure: fluorescence anisotropy; 20 nM probe; FA and competition: 50 mM Hepes pH 7.0, 150 mM NaCl, 1 mM DTT; temperature not stated. Crystals: 50 mM Hepes pH 7.5, 150 mM NaCl, 1 mM DTT; 0.1 M Mg formate, 15% PEG3350, 20 C
# Measurement parameters: protein: recombinant; chain copies: 2; label: 5' rhodamine (C6 amino) on strand 2; blunt
Property name: Kd

In [3]: df
Out[3]:
                                     binder  meas_value
0  rhodamine Hsmar1 TIR probe (dsDNA) DNA 1: TTAGGTTGGTGCAAAAGTAATTGCGGTT DNA 2: AACCGCAATTACTTTTGCACCAACCTAA       53 nM
